assay: collision cross section in nitrogen (drift tube, single-field); higher = larger gas-phase ion size; settings: ion type: [M+H]; ion source: APCI; ion mode: Positive;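 further: chemical standards at 10 µM analysed by drift tube IMS-QTOF MS in about 3.95 torr nitrogen, mean of duplicate injections differing ≤1%, mass error below 10 ppm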
Counter-ions that a name gives are not always drawn.
Measured collision cross section in nitrogen values are reported for all entries that follow.
Quantity Name: collision cross section in nitrogen (Å²)

compound="Fc1ccc([C@@]2(Cn3cncn3)O[C@@H]2c2ccccc2Cl)cc1 [Epoxiconazole]" assay_result=176.9
compound="CC(C)c1ccc2ncccc2c1 [6-(1-Methylethyl)quinoline]" assay_result=138
compound=CCCCc1nc2cccnc2n1Cc1ccc(-c2ccccc2-c2nnn[nH]2)cc1 assay_result=197
compound="Nc1ccnc(=O)[nH]1 [Cytosine]" assay_result=117.3
compound="Nc1cc(-c2ccncc2)c[nH]c1=O [Amrinone]" assay_result=142.7
compound="COc1ccc(-c2coc3cc(O)ccc3c2=O)cc1 [Formononetin]" assay_result=159.8
compound="On1nnc2ccccc21 [1-Hydroxybenzotriazole]" assay_result=124.9
compound="Cc1ccccc1NC(=N)NC(=N)N [1-(o-Tolyl)biguanide]" assay_result=144.7
compound="CN(C)CCCNCCC#N [3-{[3-(Dimethylamino)propyl]amino}propanenitrile]" assay_result=130.8
compound=Cc1cc(SCc2sc(-c3ccc(C(F)(F)F)c(F)c3)nc2C)ccc1OCC(=O)O assay_result=194.4
compound=COc1ccc(OC(F)(F)F)cc1CN[C@H]1CCCN[C@H]1c1ccccc1 assay_result=182.7
compound="COc1ccc(Nc2ccccc2)c(C)c1 [4-Methoxy-2-methyl-N-phenylaniline]" assay_result=150.5
compound="CCN(CC)c1ccc2c(c1)Oc1cc(N(CC)CC)ccc1C21OC(=O)c2ccccc21 [C.I. Solvent Red 49]" assay_result=217.9
compound="O=C1CCCCCCCCCCCN1 [Azacyclotridecan-2-one]" assay_result=148.2
compound="OCCN1CCNCC1 [1-Piperazineethanol]" assay_result=124.7
compound="CC(C)N(C(=O)CCl)c1ccccc1 [Propachlor]" assay_result=143.4
compound="N=C(NCCCCCCNC(=N)NC(=N)Nc1ccc(Cl)cc1)NC(=N)Nc1ccc(Cl)cc1 [Chlorhexidine dihydrochloride]" assay_result=222.7
compound="CC(=O)[C@@]1(O)CC[C@H]2[C@@H]3C[C@H](C)C4=CC(=O)C=C[C@]4(C)[C@@]3(F)[C@@H](O)C[C@@]21C [Fluorometholone]" assay_result=186.6
compound="Cc1ccc(N(CCO)CCO)cc1 [2,2'-[(4-Methylphenyl)imino]diethanol]" assay_result=141.8
compound="CC(C)c1ccc2sc3ccccc3c(=O)c2c1 [2-Isopropylthioxanthone]" assay_result=155.5
compound="O=C(COc1ccc(Cl)cc1)N1CCN(Cc2ccc3c(c2)OCO3)CC1 [Fipexide hydrochloride]" assay_result=190.4
compound="CC(C)(C)NC(=O)[C@@H]1CN(Cc2cccnc2)CCN1C[C@@H](O)C[C@@H](Cc1ccccc1)C(=O)N[C@H]1c2ccccc2C[C@H]1O [Indinavir sulfate]" assay_result=262.9
compound="CCN(CC)c1ccc(C=O)c(O)c1 [4-(Diethylamino)salicylaldehyde]" assay_result=142.6
compound="CCCCN(CCCC)SN(C)C(=O)Oc1cccc2c1OC(C)(C)C2 [Carbosulfan]" assay_result=188.3
compound="Cc1ccccc1C(=O)Nc1cccc(OC(C)C)c1 [Mepronil]" assay_result=169.9
compound="CC(=O)S[C@H](C(=O)N[C@H]1Cc2ccccc2[C@H]2CCC[C@@H](C(=O)O)N2C1=O)C(C)C [Ilepatril]" assay_result=195.4
compound="CCCCCCCCn1sccc1=O [2-n-Octyl-4-isothiazolin-3-one]" assay_result=158.3
compound="CCCCCCCCC=CCCCCCCCC1=NCCN1CCO [2-(8-Heptadecenyl)-2-imidazoline-1-ethanol]" assay_result=199.3
compound="Cn1c(=S)[nH]c2ccccc21 [1-Methyl-1,3-dihydro-2H-benzimidazole-2-thione]" assay_result=130.7
